I'd appreciate it if you could supply protein stability index values for the items below.
- Test system: Saccharomyces cerevisiae
- Assay Comment: protein stability index of tFT-peptide fusion (C-terminal peptide) (PSI (0-1 scale)); higher = more stable (slower turnover)
- Condition Context: genetic background: wild type; temperature: 30 C

Tested system Saccharomyces cerevisiae; protein stability index recorded for GGGVGVAVVLFW was 0.417

Tested system Saccharomyces cerevisiae; protein stability index recorded for SRPRPSPSPFIA was 0.708

Tested system Saccharomyces cerevisiae; protein stability index recorded for VPQREWGGVRLG was 0.675

Tested system Saccharomyces cerevisiae; protein stability index recorded for WNRVPEWTREPL was 0.719

Tested system Saccharomyces cerevisiae; protein stability index recorded for DKCRWWRHGVWR was 0.687

Tested system Saccharomyces cerevisiae; protein stability index recorded for PVFLSCCLCLLS was 0.78

Tested system Saccharomyces cerevisiae; protein stability index recorded for VIGAGTGCVVVG was 0.72

Tested system Saccharomyces cerevisiae; protein stability index recorded for GSSVRGSLGREI was 0.711

Tested system Saccharomyces cerevisiae; protein stability index recorded for PRDLRVVRLTSA was 0.63

Tested system Saccharomyces cerevisiae; protein stability index recorded for LRFGEGILLDWG was 0.723

Tested system Saccharomyces cerevisiae; protein stability index recorded for GGCRQKPRGGAD was 0.666

Tested system Saccharomyces cerevisiae; protein stability index recorded for WRLFFGVNLIKF was 0.622

Tested system Saccharomyces cerevisiae; protein stability index recorded for SSSYPFPAPALR was 0.683

Tested system Saccharomyces cerevisiae; protein stability index recorded for GDISILGSEYSM was 0.728

Tested system Saccharomyces cerevisiae; protein stability index recorded for APSPPSHPAAIP was 0.741

Tested system Saccharomyces cerevisiae; protein stability index recorded for VPPPRYLPAFPA was 0.694

Tested system Saccharomyces cerevisiae; protein stability index recorded for IAVPFMPADLSF was 0.718

Tested system Saccharomyces cerevisiae; protein stability index recorded for PSPSWYGRRLLG was 0.659

Tested system Saccharomyces cerevisiae; protein stability index recorded for VLSISINRGVRI was 0.664

Tested system Saccharomyces cerevisiae; protein stability index recorded for IPFRRCFWFFWV was 0.234

Tested system Saccharomyces cerevisiae; protein stability index recorded for ATILILHTSPQF was 0.655

Tested system Saccharomyces cerevisiae; protein stability index recorded for FYCSWGGNDVDN was 0.692

Tested system Saccharomyces cerevisiae; protein stability index recorded for VSDLYLSLVRVV was 0.45

Tested system Saccharomyces cerevisiae; protein stability index recorded for GGGSGVLEWGSV was 0.714

Tested system Saccharomyces cerevisiae; protein stability index recorded for RGQDGSEGRGPA was 0.653

Tested system Saccharomyces cerevisiae; protein stability index recorded for FVLLSPRYSPPR was 0.676

Tested system Saccharomyces cerevisiae; protein stability index recorded for KKTNTQTKKKTK was 0.709

Tested system Saccharomyces cerevisiae; protein stability index recorded for VIDFAELGTVAH was 0.73

Tested system Saccharomyces cerevisiae; protein stability index recorded for FRQQGGERVRWG was 0.66

Tested system Saccharomyces cerevisiae; protein stability index recorded for PGGQGVRTDRPQ was 0.678

Tested system Saccharomyces cerevisiae; protein stability index recorded for EKMILEIKRGRI was 0.688

Tested system Saccharomyces cerevisiae; protein stability index recorded for APPLPSAPPPPR was 0.668

Tested system Saccharomyces cerevisiae; protein stability index recorded for PPLMLPSTPSSS was 0.704

Tested system Saccharomyces cerevisiae; protein stability index recorded for DFCPCPRWFLRR was 0.715

Tested system Saccharomyces cerevisiae; protein stability index recorded for WWVVVRGGWCLC was 0.204

Tested system Saccharomyces cerevisiae; protein stability index recorded for LRYGSDQMERFI was 0.717

Tested system Saccharomyces cerevisiae; protein stability index recorded for SVLDAVGGSVTA was 0.668

Tested system Saccharomyces cerevisiae; protein stability index recorded for FFGGAGGTEGLG was 0.689

Tested system Saccharomyces cerevisiae; protein stability index recorded for RLLLSVLFGFFA was 0.525

Tested system Saccharomyces cerevisiae; protein stability index recorded for VGWCPLVGGSGQ was 0.753

Tested system Saccharomyces cerevisiae; protein stability index recorded for DSVVGFCGYWGG was 0.706

Tested system Saccharomyces cerevisiae; protein stability index recorded for LCFLVALASMLF was 0.504

Tested system Saccharomyces cerevisiae; protein stability index recorded for LNSSGPGYGFPG was 0.743

Tested system Saccharomyces cerevisiae; protein stability index recorded for RPEVRIHITSQS was 0.655

Tested system Saccharomyces cerevisiae; protein stability index recorded for PCHPRPPPASPP was 0.692

Tested system Saccharomyces cerevisiae; protein stability index recorded for AGSCRCRTCCLV was 0.614

Tested system Saccharomyces cerevisiae; protein stability index recorded for HVLRMFTGFLFC was 0.624

Tested system Saccharomyces cerevisiae; protein stability index recorded for PLFLPALPPPLP was 0.687

Tested system Saccharomyces cerevisiae; protein stability index recorded for RDVRNRARVKRE was 0.693

Tested system Saccharomyces cerevisiae; protein stability index recorded for CNDAYKSKLARL was 0.696

Tested system Saccharomyces cerevisiae; protein stability index recorded for EIERTKNEGEEG was 0.67

Tested system Saccharomyces cerevisiae; protein stability index recorded for WAIVVLVCFLRL was 0.343

Tested system Saccharomyces cerevisiae; protein stability index recorded for EFPSFHDQGAYM was 0.738

Tested system Saccharomyces cerevisiae; protein stability index recorded for SARLCPPRGGFR was 0.748

Tested system Saccharomyces cerevisiae; protein stability index recorded for VPPASTSPGAFP was 0.689

Tested system Saccharomyces cerevisiae; protein stability index recorded for CILPFFFFVSPD was 0.652

Tested system Saccharomyces cerevisiae; protein stability index recorded for GFSKNCSCVVLC was 0.559

Tested system Saccharomyces cerevisiae; protein stability index recorded for YGILSVRGSLSR was 0.76

Tested system Saccharomyces cerevisiae; protein stability index recorded for GWRGAAGVPTVD was 0.73

Tested system Saccharomyces cerevisiae; protein stability index recorded for LLIYALPQGTHL was 0.68

Tested system Saccharomyces cerevisiae; protein stability index recorded for PSGLVSPSCLGC was 0.68

Tested system Saccharomyces cerevisiae; protein stability index recorded for AGWGRRRLDGGR was 0.684

Tested system Saccharomyces cerevisiae; protein stability index recorded for AGCVLDGRGVVA was 0.615

Tested system Saccharomyces cerevisiae; protein stability index recorded for VMWVGGAAGPVV was 0.663

Tested system Saccharomyces cerevisiae; protein stability index recorded for RSVPLLNPGFHY was 0.663

Tested system Saccharomyces cerevisiae; protein stability index recorded for IKIKKKKKKKRD was 0.665

Tested system Saccharomyces cerevisiae; protein stability index recorded for TVLRPKERQEHN was 0.721

Tested system Saccharomyces cerevisiae; protein stability index recorded for TVHTILYVPDEL was 0.677

Tested system Saccharomyces cerevisiae; protein stability index recorded for MNERDKGKIKKQ was 0.697

Tested system Saccharomyces cerevisiae; protein stability index recorded for CRVWRAPSGWVG was 0.646

Tested system Saccharomyces cerevisiae; protein stability index recorded for VPVGSLLVGSVT was 0.528

---

- Tested on: Saccharomyces cerevisiae
- Assay Comment: protein stability index of tFT-peptide fusion (C-terminal peptide) (PSI (0-1 scale)); higher = more stable (slower turnover)
- Condition Context: genetic background: wild type; temperature: 30 C
I'd appreciate it if you could supply protein stability index values for the items below.
Give the value as a plain number.

Tested system Saccharomyces cerevisiae; protein stability index recorded for CRILSPLPAIFV was 0.53

Tested system Saccharomyces cerevisiae; protein stability index recorded for HCVRVEWVEGRR was 0.668

Tested system Saccharomyces cerevisiae; protein stability index recorded for LAYITTTPALAS was 0.581

Tested system Saccharomyces cerevisiae; protein stability index recorded for LSYWPDARRPVL was 0.643

Tested system Saccharomyces cerevisiae; protein stability index recorded for SSPLPPSLPSSR was 0.671

Tested system Saccharomyces cerevisiae; protein stability index recorded for GSFPPPARARLS was 0.677

Tested system Saccharomyces cerevisiae; protein stability index recorded for KIQLTTMKNHGK was 0.685

Tested system Saccharomyces cerevisiae; protein stability index recorded for DFLRCPPLFEFS was 0.721

Tested system Saccharomyces cerevisiae; protein stability index recorded for PAPLPPPPPPRP was 0.689

Tested system Saccharomyces cerevisiae; protein stability index recorded for AGVGLAETAGDD was 0.677

Tested system Saccharomyces cerevisiae; protein stability index recorded for SFLFWFFASGWL was 0.56

Tested system Saccharomyces cerevisiae; protein stability index recorded for MESGGVGRVVWR was 0.655

Tested system Saccharomyces cerevisiae; protein stability index recorded for SPLSPAVPSTAL was 0.742

---

- Test system: Saccharomyces cerevisiae;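 further: PSI is a weighted mean of sequencing reads over stability bins, variants kept only with over 10 reads, mCherry proximal and sfGFP distal, peptide attached via GGGS linker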
- Assay Comment: protein stability index of tFT-peptide fusion (C-terminal peptide) (PSI (0-1 scale)); higher = more stable (slower turnover)
- Condition Context: genetic background: wild type; temperature: 30 C
Endpoint: protein stability index

Tested system Saccharomyces cerevisiae; protein stability index recorded for SATPSSLPLPPS was 0.739

Tested system Saccharomyces cerevisiae; protein stability index recorded for ENLRKLGIALWG was 0.682

Tested system Saccharomyces cerevisiae; protein stability index recorded for VCGWGFLLGVFV was 0.511

Tested system Saccharomyces cerevisiae; protein stability index recorded for NQNKENKEIDRK was 0.64

Tested system Saccharomyces cerevisiae; protein stability index recorded for PLSLICLLKSYL was 0.708

Tested system Saccharomyces cerevisiae; protein stability index recorded for PPPPPPPPHLLP was 0.658

Tested system Saccharomyces cerevisiae; protein stability index recorded for PSPLPSPLLTTL was 0.682

Tested system Saccharomyces cerevisiae; protein stability index recorded for VHRFPPAPFCTP was 0.734

Tested system Saccharomyces cerevisiae; protein stability index recorded for CVLPVSVIWVLR was 0.575

Tested system Saccharomyces cerevisiae; protein stability index recorded for VGSCGGGKVVVE was 0.655

Tested system Saccharomyces cerevisiae; protein stability index recorded for VLFPLPFPCVSF was 0.681

Tested system Saccharomyces cerevisiae; protein stability index recorded for ASAGTVYLTLLP was 0.697

Tested system Saccharomyces cerevisiae; protein stability index recorded for VKSFRFPHPVWN was 0.682

Tested system Saccharomyces cerevisiae; protein stability index recorded for IISQLEQSFISP was 0.74

Tested system Saccharomyces cerevisiae; protein stability index recorded for LKNFGRGAMVRT was 0.688

Tested system Saccharomyces cerevisiae; protein stability index recorded for KPLPPPEFRPHP was 0.69

Tested system Saccharomyces cerevisiae; protein stability index recorded for PPPYPSYPPRPN was 0.724

Tested system Saccharomyces cerevisiae; protein stability index recorded for RRVGVVAWGRGG was 0.71

Tested system Saccharomyces cerevisiae; protein stability index recorded for SGDVGGGHWVGG was 0.729

Tested system Saccharomyces cerevisiae; protein stability index recorded for TIGPVRSGHVLA was 0.681

Tested system Saccharomyces cerevisiae; protein stability index recorded for CQFHHHPDLTIK was 0.609

Tested system Saccharomyces cerevisiae; protein stability index recorded for GVAGWGTVVGAQ was 0.712

Tested system Saccharomyces cerevisiae; protein stability index recorded for GGPGGGVSGWEG was 0.704

Tested system Saccharomyces cerevisiae; protein stability index recorded for FVSVSVRFHHSF was 0.575

Tested system Saccharomyces cerevisiae; protein stability index recorded for PKPNRAHSTTHR was 0.691

Tested system Saccharomyces cerevisiae; protein stability index recorded for LIFLSISFISSL was 0.295

Tested system Saccharomyces cerevisiae; protein stability index recorded for IKTKGRYKKQRT was 0.408

Tested system Saccharomyces cerevisiae; protein stability index recorded for RSFFDRLNRSLS was 0.666

Tested system Saccharomyces cerevisiae; protein stability index recorded for GGGARGGGGWGG was 0.631

Tested system Saccharomyces cerevisiae; protein stability index recorded for SCVDHLGCHSSG was 0.739

Data origin: the supplement of paper PMC10724198
